- systemUnderTest: human indoleamine 2,3-dioxygenase 1 (hIDO1) (Homo sapiens, UniProt P14902)
- Construct: His tag (N); purchased BPS Bioscience, San Diego, Calif., USA; host or cells: E. coli
- Sequence (P14902 whole entry): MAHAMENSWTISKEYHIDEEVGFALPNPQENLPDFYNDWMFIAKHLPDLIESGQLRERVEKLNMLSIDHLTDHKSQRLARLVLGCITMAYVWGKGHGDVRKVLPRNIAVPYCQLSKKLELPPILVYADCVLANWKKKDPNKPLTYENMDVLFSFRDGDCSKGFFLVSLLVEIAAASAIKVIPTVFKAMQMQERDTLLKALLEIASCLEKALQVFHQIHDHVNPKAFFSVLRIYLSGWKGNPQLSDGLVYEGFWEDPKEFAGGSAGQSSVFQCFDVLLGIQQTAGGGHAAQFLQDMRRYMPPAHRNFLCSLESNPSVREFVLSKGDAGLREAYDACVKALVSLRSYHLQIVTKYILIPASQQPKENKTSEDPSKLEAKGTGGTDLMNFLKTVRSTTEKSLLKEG
- assaySummary: In-vitro human indoleamine 2,3-dioxygenase 1 (IDO1) enzyme assay
- Type: biochemical
- statedConditions: hIDO1 enzyme at 1.0 μM concentration
endpointLabel: inhibition at 1 µM

CC1=C(c2ccccc2)C(CC(=O)c2cccc(-c3ccccc3F)c2)n2cncc21 (centres unmarked) [Example 70] : ≥ 50%
CC1=C(c2ccccc2)C(C[C@H](O)C2CCC(C(=O)Nc3ccncc3)CC2)n2cncc21 (some centres unmarked) [Example 119] : ≥ 50%
CC1=C(c2ccccc2)C(CC(=O)C2CCC(C(=O)NC3CCCCC3)CC2)n2cncc21 (centres unmarked) [Example 123] : ≤ 50%
CCOC(=O)N1CCC(C(=O)CC2C(c3ccccc3)=C(C)c3cncn32)CC1 (centres unmarked) [Example 146] : ≤ 50%
CC1=C(c2ccccc2)C(CC(=O)c2ccc(C(=O)Nc3ccc(C)cc3C)cc2)n2cncc21 (centres unmarked) [Example 84] : ≥ 50%

Batch request: inhibition at 1 µM for each of the following compounds.
1. CC1=C(c2ccccc2)C(CC(O)C2CCN(C(=O)OCc3ccccc3)CC2)n2cncc21 (centres unmarked) [Example 137]
2. CC1=C(c2ccccc2)C(CC(=O)C2CN(C(=O)c3ccccc3)C2)n2cncc21 (centres unmarked) [Example 159]
3. CC1=C(c2ccccc2)C(C[C@H](O)C2CCC(C(=O)Nc3cccnc3)CC2)n2cncc21 (some centres unmarked) [Example 128]

A)
≥ 50%
≤ 50%
≥ 50%

###

I'd appreciate it if you could supply inhibition at 1 µM values for the items below.
- systemUnderTest: human indoleamine 2,3-dioxygenase 1 (hIDO1) (Homo sapiens)
- Construct: His tag (N); purchased BPS Bioscience, San Diego, Calif., USA; host or cells: E. coli
- assaySummary: In-vitro human indoleamine 2,3-dioxygenase 1 (IDO1) enzyme assay
- Format: biochemical
- statedConditions: hIDO1 enzyme at 1.0 μM concentration

Solved entries (count: 2):
CC1=C(c2ccccc2)C(CC(=O)c2ccsc2)n2cncc21 (centres unmarked) : ≤ 50%
CC1=C(c2ccccc2C)C(CC(O)C2CCCCC2)n2cncc21 (centres unmarked) : ≤ 50%

Batch request: inhibition at 1 µM for each of the following compounds.
1. CC1=C(c2ccccc2)C(CC(=O)c2ccc3c(c2)OCO3)n2cncc21 (centres unmarked)
2. CC1=C(c2ccccc2)C(CC(=O)c2cccc(Cl)c2)n2cncc21 (centres unmarked)
3. CC1=C(c2ccccc2)C(C[C@H](O)C2CCC(C(=O)O)CC2)n2cncc21 (some centres unmarked)
4. CC1=C(c2ccccc2)C(CC(=O)c2ccc(C3CCCCC3)cc2)n2cncc21 (centres unmarked)

A)
["≥ 50%", "≥ 50%", "≤ 50%", "≤ 50%"]

Batch request: inhibition at 1 µM for each of the following compounds.
1. CCOC(=O)N1CCC(C(O)CC2C(c3ccccc3)=C(C)c3cncn32)CC1 (centres unmarked)
2. CC1=C(c2ccccc2)C(CC(=O)c2ccccc2)n2cncc21 (single isomer, unassigned)

A)
["≥ 50%", "≥ 50%"]

Batch request: inhibition at 1 µM for each of the following compounds.
1. CC1=C(c2ccccc2)C(CC(O)c2ccc(F)cc2)n2cncc21 (centres unmarked)
2. CC1=C(c2ccccc2)C(CC(O)C2CCN(C(=O)Nc3ccc(F)c(Cl)c3)CC2)n2cncc21 (centres unmarked)

A)
1. ≤ 50%
2. ≥ 50%
